Target: NAD-dependent protein deacetylase sirtuin-3, mitochondrial (Homo sapiens, UniProt Q9NTG7)
Sequence (Q9NTG7 whole entry): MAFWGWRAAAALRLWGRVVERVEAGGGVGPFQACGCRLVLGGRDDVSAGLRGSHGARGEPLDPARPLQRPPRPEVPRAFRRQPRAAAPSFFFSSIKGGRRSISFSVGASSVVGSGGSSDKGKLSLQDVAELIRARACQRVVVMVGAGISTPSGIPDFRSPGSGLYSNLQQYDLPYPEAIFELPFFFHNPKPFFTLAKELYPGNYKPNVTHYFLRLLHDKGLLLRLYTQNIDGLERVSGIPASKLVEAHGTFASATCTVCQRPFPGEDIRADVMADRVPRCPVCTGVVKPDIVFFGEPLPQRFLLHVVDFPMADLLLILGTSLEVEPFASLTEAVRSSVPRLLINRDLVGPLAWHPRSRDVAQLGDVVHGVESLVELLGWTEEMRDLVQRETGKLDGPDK
Assay: Inhibition of wild type C-terminal human SIRT3 (118 to […] residues) expressed in Escherichia coli strain BL21DE3 Rosetta2 using Fluor de lys as substrate incubated for 30 mins by fluorescence based analysis
Parameter Measured: IC50 (µM)

>>> readout_number("Oc1cc(O)cc(/C=C/c2ccc(Br)cc2)c1")
143

* * *

The molecules listed here are annotated with their pIC50.
Test system: MV4-11
Experiment: cells
Conditions: Homo sapiens, MV4-11, 24 h
pIC50: −log10 of the molar value.
Parameter Measured: pIC50

>>> readout_number("NC(=O)c1cc2ncnc(N3[C@@H]4C[C@H]3CN(C(=O)Nc3cc(C(F)(F)F)cc(C(F)(F)F)c3)C4)c2s1")
4.58
>>> readout_number("C#Cc1cccc(NC(=O)N2C[C@H]3C[C@@H](C2)N3c2ncnc3cc(C(N)=O)sc23)c1")
4.54
>>> readout_number("c1cncc(-c2cnn[nH]2)c1")
4.56
>>> readout_number("NC(=O)c1cc2ncnc(N3[C@@H]4C[C@H]3CN(C(=O)Nc3cccc(Cl)c3)C4)c2s1")
4.47
>>> readout_number("NC(=O)c1cc2ncnc(N3CCN(C(=O)Nc4ccc(Cl)cc4)CC3)c2s1")
4.91
>>> readout_number("Cc1ccc(NC(=O)N2CCN(c3ncnc4cc(C(N)=O)sc34)CC2)cc1")
4.59
>>> readout_number("Cc1ccc(NC(=O)N2C[C@H]3CC[C@@H](C2)N3c2ncnc3cc(C(N)=O)sc23)cc1")
4.74
>>> readout_number("NC(=O)c1cc2ncnc(N3CCN(C(=O)NC4CCCCC4)CC3)c2s1")
4.48
>>> readout_number("NC(=O)c1cc2ncnc(N3[C@@H]4C[C@H]3CN(C(=O)Nc3ccc(C(F)(F)F)cc3)C4)c2s1")
4.58
>>> readout_number("NC(=O)c1cc2ncnc(N3[C@@H]4CC[C@H]3CN(C(=O)Nc3ccc(Cl)c(Cl)c3)C4)c2s1")
5.29
>>> readout_number("NC(=O)c1cc2ncnc(N3CCN(C(=O)Nc4cc(Cl)cc(Cl)c4)CC3)c2s1")
5.14
>>> readout_number("NC(=O)c1cc2ncnc(N3[C@@H]4C[C@H]3CN(C(=O)Nc3ccc(Cl)c(Cl)c3)C4)c2s1")
4.70
>>> readout_number("NC(=O)c1cc2ncnc(N3[C@@H]4CC[C@H]3CN(C(=O)Nc3ccc5ccccc5c3)C4)c2s1")
4.83
